Provide the recorded Kd for the entries that follow.
SYSTEM TESTED: T1, EsCas13d, nuclease-dead (Eubacterium siraeum, UniProt B0MS50, R295A;H300A;R849A;H854A)
T1 sequence: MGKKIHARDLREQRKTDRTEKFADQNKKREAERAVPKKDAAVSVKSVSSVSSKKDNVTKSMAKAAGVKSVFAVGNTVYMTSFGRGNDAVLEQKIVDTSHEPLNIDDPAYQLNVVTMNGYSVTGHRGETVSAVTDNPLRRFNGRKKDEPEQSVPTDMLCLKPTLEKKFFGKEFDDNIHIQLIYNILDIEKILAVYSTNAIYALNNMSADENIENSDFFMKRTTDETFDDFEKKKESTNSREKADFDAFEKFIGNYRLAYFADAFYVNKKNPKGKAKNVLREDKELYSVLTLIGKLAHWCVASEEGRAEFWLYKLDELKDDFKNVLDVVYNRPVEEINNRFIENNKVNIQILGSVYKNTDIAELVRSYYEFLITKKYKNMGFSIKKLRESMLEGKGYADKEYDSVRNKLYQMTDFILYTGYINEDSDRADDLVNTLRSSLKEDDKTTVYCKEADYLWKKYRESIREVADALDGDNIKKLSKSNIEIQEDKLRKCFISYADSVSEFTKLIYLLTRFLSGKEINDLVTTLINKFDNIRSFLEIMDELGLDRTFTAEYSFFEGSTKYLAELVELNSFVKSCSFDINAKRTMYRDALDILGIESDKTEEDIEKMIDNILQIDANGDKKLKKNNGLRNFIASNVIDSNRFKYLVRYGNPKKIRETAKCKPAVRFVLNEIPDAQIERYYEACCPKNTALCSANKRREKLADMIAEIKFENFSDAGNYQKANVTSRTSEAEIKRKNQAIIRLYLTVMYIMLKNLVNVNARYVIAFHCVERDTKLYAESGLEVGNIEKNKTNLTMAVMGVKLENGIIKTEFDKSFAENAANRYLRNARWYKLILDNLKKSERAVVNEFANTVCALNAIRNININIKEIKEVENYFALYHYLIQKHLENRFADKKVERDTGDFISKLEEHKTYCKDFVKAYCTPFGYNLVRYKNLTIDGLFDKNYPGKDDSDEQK
PROTOCOL SUMMARY: crRNA (strand 1, pre-loaded); Mg2+; 40 mM Tris-HCl pH 7.5, 150 mM NaCl, 6 mM MgCl2, 1 mM DTT, 0.1% Tween-20, 0.2 mg/ml BSA; 25 C; 10 min per concentration, then washed
RECORDED CONDITIONS: tags: His6-TwinStrep-SUMO cleaved; N-terminal SNAP kept (SNAP-Surface 488); label: 3' end held by stalled T7 RNA polymerase

# annotated cases, reported Kd shown
BINDER	Kd
target 1 MT 5'PFS AGA 3'PFS UGC (mixed) RNA 1: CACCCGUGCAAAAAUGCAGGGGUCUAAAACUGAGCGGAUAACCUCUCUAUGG RNA 2: GGGAAUGGAUCCACAUCUACGAAUUCAGACCAUAGAGAGGUUAUCCGCUCAUGCAGAUCGGAAGAGCACACGU	~53.5 nM
target 1 MT 5'PFS CAG 3'PFS AUC (mixed) RNA 1: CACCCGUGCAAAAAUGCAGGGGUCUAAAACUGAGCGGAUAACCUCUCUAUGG RNA 2: GGGAAUGGAUCCACAUCUACGAAUUCCAGCCAUAGAGAGGUUAUCCGCUCAAUCAGAUCGGAAGAGCACACGU	~17.5 nM

Now consider a different binder.
Query :: Which value of Kd has been reported for target 2 MT 5'PFS ACG 3'PFS ACC (mixed) RNA 1: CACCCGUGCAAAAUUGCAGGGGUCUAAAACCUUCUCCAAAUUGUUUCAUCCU RNA 2: GGGAAUGGAUCCACAUCUACGAAUUCACGAGGAUGAAACAAUUUGGAGAAGACCAGAUCGGAAGAGCACACGU in the records?
Result :: ~20 nM

Every entry's value here was drawn from paper PMC10786891.
